FYI, the data here is from paper PMC10566475.

Molecular target: interaction between the human Keap1 Kelch domain and an Nrf2-ETGE peptide (Homo sapiens)
Construct: 1nM purified human Keap1 Kelch domain (A321-T609) fused with N-terminal 6x His-tag; made in house
Assay: Keap1-Nrf2 TR-FRET (HTRF) assay
Format: binding
Conditions: Table 1; geometric mean ± sd of at least 3 independent repeats unless stated; read-out: TR-FRET IC50
Description: We based the design of our Nrf2-like cyclic peptides around the amino acid sequence of the ETGE motif (namely 12-mer ^73[…]^84L) and SAR studies reported in the literature.[9,10,12,14] […] The ability of the cyclic peptides to bind to the Kelch domain of Keap1 was evaluated using surface plasma resonance (SPR), where the Kelch domain is immobilised onto a SPR sensor chip. […] Here, the IC50 for inhibition of the interaction between the human Keap1 Kelch domain and an Nrf2-ETGE peptide is measured. […]
*1 amine or outer side, *2 acyl side, *3 side chain or, on linkers, in order; H or OH if unused. Where a SMILES comes first, the peptide text is derived from it. Bridges are numbered along the chain shown (N, C = ends). CH2COCH2 = O=C(C[*:1])C[*:2]
metric_name: pIC50
Answers are plain numbers, as −log10 of the molar value.

CC(=O)N[C@@H](CC(C)C)C(=O)N[C@@H](CCC(N)=O)C(=O)N[C@H]1CSCC(=O)CSC[C@@H](C(=O)N[C@@H](CC(C)C)C(N)=O)NC(=O)[C@H](CCC(=O)O)NC(=O)CNC(=O)[C@H]([C@@H](C)O)NC(=O)[C@H](CCC(=O)O)NC(=O)[C@@H]2CCCN2C(=O)[C@H](CC(=O)O)NC1=O [Peptide P2-B] (Ac-LQCDPETGECL-NH2; linker 3-10 via CH2COCH2) ... 8.01

Query: Return pIC50 measured with interaction between the human Keap1 Kelch domain and an Nrf2-ETGE peptide (Homo sapiens) given this molecule: CC(=O)N[C@@H](CS)C(=O)N[C@@H](CCC(N)=O)C(=O)N[C@@H](CC(C)C)C(=O)N[C@@H](CC(=O)O)C(=O)N1CCC[C@H]1C(=O)N[C@@H](CCC(=O)O)C(=O)N[C@H](C(=O)NCC(=O)N[C@@H](CCC(=O)O)C(=O)N[C@@H](CS)C(=O)N[C@@H](CC(C)C)C(N)=O)[C@@H](C)O [Peptide P1] (Ac-CQLDPETGECL-NH2)
Reply: 8.31

###

target: human Keap1 Kelch domain (A321-T609) (Homo sapiens, UniProt Q14145); construct: human Keap1 Kelch domain (A321-T609) fused with N-terminal 6x His-tag; 6xHis (N); made in house; assay: Surface plasmon resonance (SPR) direct binding assay, immobilised Keap1 Kelch domain; conditions: Table 1; single cycle kinetics, 1:1 Langmuir model
Sequence (Q14145 321-609): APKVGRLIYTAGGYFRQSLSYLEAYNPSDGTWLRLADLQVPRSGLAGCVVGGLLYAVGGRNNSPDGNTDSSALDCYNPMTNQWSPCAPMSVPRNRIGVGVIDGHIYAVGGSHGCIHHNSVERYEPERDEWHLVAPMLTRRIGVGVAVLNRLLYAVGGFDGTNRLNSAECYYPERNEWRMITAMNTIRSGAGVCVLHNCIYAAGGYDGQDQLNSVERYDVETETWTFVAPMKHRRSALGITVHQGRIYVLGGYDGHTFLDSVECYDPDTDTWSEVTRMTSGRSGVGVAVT
*1 amine or outer side, *2 acyl side, *3 side chain or, on linkers, in order; H or OH if unused. Where a SMILES comes first, the peptide text is derived from it. Bridges are numbered along the chain shown (N, C = ends). X1 = CN(CC(=O)O)c1nc(CC[*:1])cc(CC[*:2])n1; CH2 = C([*:1])[*:2]
metric_name: koff (s⁻¹)
Numbers only, in s⁻¹.

Study these solved cases before continuing.
CC(=O)N[C@@H](CS)C(=O)N[C@@H](CCC(N)=O)C(=O)N[C@@H](CC(C)C)C(=O)N[C@@H](CC(=O)O)C(=O)N1CCC[C@H]1C(=O)N[C@@H](CCC(=O)O)C(=O)N[C@H](C(=O)NCC(=O)N[C@@H](CCC(=O)O)C(=O)N[C@@H](CS)C(=O)N[C@@H](CC(C)C)C(N)=O)[C@@H](C)O [Peptide P1] (Ac-CQLDPETGECL-NH2) ... 0.0014
CC(=O)N[C@H]1CSCCc2cc(nc(N(C)CC(=O)O)n2)CCSC[C@@H](C(=O)N[C@@H](CC(C)C)C(N)=O)NC(=O)[C@H](CCC(=O)O)NC(=O)CNC(=O)[C@H]([C@@H](C)O)NC(=O)[C@H](CCC(=O)O)NC(=O)[C@@H]2CCCN2C(=O)[C@H](CC(=O)O)NC(=O)[C@H](CC(C)C)NC(=O)[C@H](CCC(N)=O)NC(=O)[C@H](CC(C)C)NC1=O [Peptide P3-D] (Ac-CLQLDPETGECL-NH2; linker 1-11 via X1) ... 0.0028

We next turn to a different molecule, shown below.
Query: State the recorded koff for this entry: CC(=O)N[C@@H](CC(C)C)C(=O)N[C@@H](CCC(N)=O)C(=O)N[C@H]1CSCSC[C@@H](C(=O)N[C@@H](CC(C)C)C(N)=O)NC(=O)[C@H](CCC(=O)O)NC(=O)CNC(=O)[C@H]([C@@H](C)O)NC(=O)[C@H](CCC(=O)O)NC(=O)[C@@H]2CCCN2C(=O)[C@H](CC(=O)O)NC1=O [Peptide P2-A] (Ac-LQCDPETGECL-NH2; linker 3-10 via CH2)
Reply: 0.015

###

target: human Keap1 Kelch domain (A321-T609) (Homo sapiens, UniProt Q14145); construct: human Keap1 Kelch domain (A321-T609) fused with N-terminal 6x His-tag; 6xHis (N); made in house; test: Surface plasmon resonance (SPR) direct binding assay, immobilised Keap1 Kelch domain; settings: Table 1; single cycle kinetics, 1:1 Langmuir model
*1 amine or outer side, *2 acyl side, *3 side chain or, on linkers, in order; H or OH if unused. Where a SMILES comes first, the peptide text is derived from it. Bridges are numbered along the chain shown (N, C = ends). X1 = CN(CC(=O)O)c1nc(CC[*:1])cc(CC[*:2])n1; mXylylene = c1cc(C[*:1])cc(C[*:2])c1; CH2COCH2 = O=C(C[*:1])C[*:2]; CH2 = C([*:1])[*:2]
Kindly apply the following: True if kon is less than 200000 M⁻¹ s⁻¹, False in every other case.

CC(=O)N[C@@H](CS)C(=O)N[C@@H](CC(C)C)C(=O)N[C@@H](CCC(N)=O)C(=O)N[C@@H](CC(C)C)C(=O)N[C@@H](CC(=O)O)C(=O)N1CCC[C@H]1C(=O)N[C@@H](CCC(=O)O)C(=O)N[C@H](C(=O)NCC(=O)N[C@@H](CCC(=O)O)C(=O)N[C@@H](CS)C(=O)N[C@@H](CC(C)C)C(N)=O)[C@@H](C)O [Peptide P3] (Ac-CLQLDPETGECL-NH2) ... True
CC(=O)N[C@H]1Cn2cc(nn2)-c2cc(C(=O)O)cc(c2)-c2cn(nn2)C[C@@H](C(=O)N[C@@H](CC(C)C)C(N)=O)NC(=O)[C@H](CCC(=O)O)NC(=O)CNC(=O)[C@H]([C@@H](C)O)NC(=O)[C@H](CCC(=O)O)NC(=O)[C@@H]2CCCN2C(=O)[C@H](CC(=O)O)NC(=O)[C@H](CC(C)C)NC(=O)[C@H](CCC(N)=O)NC(=O)[C@H](CC(C)C)NC1=O [Peptide P3Aza-E] ... True
CC(=O)N[C@@H](CS)C(=O)N[C@@H](CCC(N)=O)C(=O)N[C@@H](CC(C)C)C(=O)N[C@@H](CC(=O)O)C(=O)N1CCC[C@H]1C(=O)N[C@@H](CCC(=O)O)C(=O)N[C@H](C(=O)NCC(=O)N[C@@H](CCC(=O)O)C(=O)N[C@@H](CS)C(=O)N[C@@H](CC(C)C)C(N)=O)[C@@H](C)O [Peptide P1] (Ac-CQLDPETGECL-NH2) ... True
CC(=O)N[C@H]1CSCSC[C@@H](C(=O)N[C@@H](CC(C)C)C(N)=O)NC(=O)[C@H](CCC(=O)O)NC(=O)CNC(=O)[C@H]([C@@H](C)O)NC(=O)[C@H](CCC(=O)O)NC(=O)[C@@H]2CCCN2C(=O)[C@H](CC(=O)O)NC(=O)[C@H](CC(C)C)NC(=O)[C@H](CCC(N)=O)NC1=O [Peptide P1-A] (Ac-CQLDPETGECL-NH2; linker 1-10 via CH2) ... False
CC(=O)N[C@H]1CSCc2cccc(c2)CSC[C@@H](C(=O)N[C@@H](CC(C)C)C(N)=O)NC(=O)[C@H](CCC(=O)O)NC(=O)CNC(=O)[C@H]([C@@H](C)O)NC(=O)[C@H](CCC(=O)O)NC(=O)[C@@H]2CCCN2C(=O)[C@H](CC(=O)O)NC(=O)[C@H](CC(C)C)NC(=O)[C@H](CCC(N)=O)NC1=O [Peptide P1-C] (Ac-CQLDPETGECL-NH2; linker 1-10 via mXylylene) ... False

Query: Item CC(=O)N[C@@H](CC(C)C)C(=O)N[C@@H](CCC(N)=O)C(=O)N[C@H]1CSCc2cccc(c2)CSC[C@@H](C(=O)N[C@@H](CC(C)C)C(N)=O)NC(=O)[C@H](CCC(=O)O)NC(=O)CNC(=O)[C@H]([C@@H](C)O)NC(=O)[C@H](CCC(=O)O)NC(=O)[C@@H]2CCCN2C(=O)[C@H](CC(=O)O)NC1=O [Peptide P2-C] (Ac-LQCDPETGECL-NH2; linker 3-10 via mXylylene) : kon beneath 200000 M⁻¹ s⁻¹, strictly?
Reply: False

Query: Item CC(=O)N[C@H]1CSCC(=O)CSC[C@@H](C(=O)N[C@@H](CC(C)C)C(N)=O)NC(=O)[C@H](CCC(=O)O)NC(=O)CNC(=O)[C@H]([C@@H](C)O)NC(=O)[C@H](CCC(=O)O)NC(=O)[C@@H]2CCCN2C(=O)[C@H](CC(=O)O)NC(=O)[C@H](CC(C)C)NC(=O)[C@H](CCC(N)=O)NC1=O [Peptide P1-B] (Ac-CQLDPETGECL-NH2; linker 1-10 via CH2COCH2) : kon beneath 200000 M⁻¹ s⁻¹, strictly?
Reply: False

Query: Item CC(=O)N[C@@H](CC(C)C)C(=O)N[C@@H](CCC(N)=O)C(=O)N[C@H]1CSCCc2cc(nc(N(C)CC(=O)O)n2)CCSC[C@@H](C(=O)N[C@@H](CC(C)C)C(N)=O)NC(=O)[C@H](CCC(=O)O)NC(=O)CNC(=O)[C@H]([C@@H](C)O)NC(=O)[C@H](CCC(=O)O)NC(=O)[C@@H]2CCCN2C(=O)[C@H](CC(=O)O)NC1=O [Peptide P2-D] (Ac-LQCDPETGECL-NH2; linker 3-10 via X1) : kon beneath 200000 M⁻¹ s⁻¹, strictly?
Reply: True

Query: Item CC(=O)N[C@H]1CSCCc2cc(nc(N(C)CC(=O)O)n2)CCSC[C@@H](C(=O)N[C@@H](CC(C)C)C(N)=O)NC(=O)[C@H](CCC(=O)O)NC(=O)CNC(=O)[C@H]([C@@H](C)O)NC(=O)[C@H](CCC(=O)O)NC(=O)[C@@H]2CCCN2C(=O)[C@H](CC(=O)O)NC(=O)[C@H](CC(C)C)NC(=O)[C@H](CCC(N)=O)NC(=O)[C@H](CC(C)C)NC1=O [Peptide P3-D] (Ac-CLQLDPETGECL-NH2; linker 1-11 via X1) : kon beneath 200000 M⁻¹ s⁻¹, strictly?
Reply: True

Query: Item CC(=O)N[C@@H](CC(C)C)C(=O)N[C@@H](CCC(N)=O)C(=O)N[C@H]1CSCC(=O)CSC[C@@H](C(=O)N[C@@H](CC(C)C)C(N)=O)NC(=O)[C@H](CCC(=O)O)NC(=O)CNC(=O)[C@H]([C@@H](C)O)NC(=O)[C@H](CCC(=O)O)NC(=O)[C@@H]2CCCN2C(=O)[C@H](CC(=O)O)NC1=O [Peptide P2-B] (Ac-LQCDPETGECL-NH2; linker 3-10 via CH2COCH2) : kon beneath 200000 M⁻¹ s⁻¹, strictly?
Reply: False

Query: Item CC(=O)N[C@@H](CC(C)C)C(=O)N[C@@H](CCC(N)=O)C(=O)N[C@H]1CSCSC[C@@H](C(=O)N[C@@H](CC(C)C)C(N)=O)NC(=O)[C@H](CCC(=O)O)NC(=O)CNC(=O)[C@H]([C@@H](C)O)NC(=O)[C@H](CCC(=O)O)NC(=O)[C@@H]2CCCN2C(=O)[C@H](CC(=O)O)NC1=O [Peptide P2-A] (Ac-LQCDPETGECL-NH2; linker 3-10 via CH2) : kon beneath 200000 M⁻¹ s⁻¹, strictly?
Reply: False
